Measured values drawn from PubChem BioAssay AID463173 for this set.

System: Wild type
Test: S. aureus survival, RN4220 and DeltatarO strains – OD600, teichoic acid synthesis inhibitors, primary screen (AID 463173)
Settings: S. aureus RN4220 wild type/DeltatarO growth, OD600, 18 h, stronger effect = lower value, screened at 18.75 µg/mL (by protocol)
Out of some 52,000 compounds screened, about 1,700 (3.3%) were called active. This is one part of a sample in which actives are shown more often than they occur.
Threshold 60%. survival below it: rule met. survival at it or above: rule not met.

hey, is survival for "COc1ccc(CNC(=O)c2ccc3nc(CCc4ccccc4)oc3c2)cc1OC" lower than 60% or not?
rule not met

Confirm or reject: survival of "CCCNC(=O)c1ccc2nc(CCc3ccccc3)oc2c1" lies strictly below 60%
rule not met

Please check: survival for "COC(=O)c1ccccc1NC(=O)NCCc1c(C)nn(C)c1C" , strictly under 60% or not?
rule not met

Does "COC(=O)c1ccc(Cl)cc1NC(=O)NCCc1c(C)nn(C)c1C" have survival strictly under 60%?
rule met

---

Test system: Wild type
Test: S. aureus survival, RN4220 and DeltatarO strains – OD600, teichoic acid synthesis inhibitors, primary screen (AID 463173)
Details: S. aureus RN4220 wild type/DeltatarO growth, OD600, 18 h, stronger effect = lower value, screened at 18.75 µg/mL (by protocol)
Among all 52,000 compounds or so, about 1,700 (3.3%) were called active. This excerpt belongs to a sample that is enriched for actives.
One threshold, 70%, splits the recorded survival values: lower ones are fulfilled, equal or higher ones are not fulfilled.

As a guide, the following entries are already answered.
[
  {
    "molecule": "CSc1ccc(CCNC(=O)c2cc(C)nc3c2c(C)nn3-c2ccccc2)cc1",
    "category-label": "not fulfilled"
  },
  {
    "molecule": "CCOC(=O)c1c(S(=O)(=O)N2CCC(C(=O)Nc3ccc(OCC)cc3)CC2)c(C)n(C)c1C",
    "category-label": "not fulfilled"
  },
  {
    "molecule": "COC(=O)CSc1n[nH]c(CNc2cccc(C)c2)n1",
    "category-label": "not fulfilled"
  },
  {
    "molecule": "COc1cc(Cl)c(C)cc1NC(=O)CSCc1nc(-c2ccc(OC)c(OC)c2)no1",
    "category-label": "not fulfilled"
  },
  {
    "molecule": "Cc1cccc(NC(=O)CSc2nnc(C)c(=O)[nH]2)c1",
    "category-label": "not fulfilled"
  }
]

Consider now this further molecule.
Bench note: check whether "CCCOc1ccc(CNC(=O)Cn2cc3c(n2)-c2c(oc(C(=O)N4CCOCC4)c2C)CC3)cc1" shows survival below 70%
not fulfilled

---

Tested on: Wild type
Test: S. aureus survival, RN4220 and DeltatarO strains – OD600, teichoic acid synthesis inhibitors, primary screen (AID 463173)
Conditions: S. aureus RN4220 wild type/DeltatarO growth, OD600, 18 h, stronger effect = lower value, screened at 18.75 µg/mL (by protocol)
The campaign covered roughly 52,000 compounds. About 1,700 (3.3%) were called active. Only a selection was taken, and actives are over-represented in it overall.
For each record, write down the corresponding survival.
Give bare numbers, in %.

[
  {
    "compound": "CCOC(=O)c1nnn(-c2nn3nnnc3c3ccccc23)c1C",
    "survival [%]": 101
  },
  {
    "compound": "COc1ccc(-c2nnn(CC(=O)N(CC3CCCO3)C(C(=O)NC3CCCCC3)c3cccs3)n2)cc1 (stereo not given)",
    "survival [%]": 103
  },
  {
    "compound": "COc1cc(-c2nc(Cn3nnc(C(=O)Nc4cc(C)cc(C)c4)c3C)c(C)o2)cc(OC)c1OC",
    "survival [%]": 70
  },
  {
    "compound": "CCOC(=O)c1c(C)[nH]c(C)c1S(=O)(=O)N1CCC(C(=O)NCc2cccc(C)c2)CC1",
    "survival [%]": 76
  }
]

Lab note: next compound to report on.
Value of measured survival for the entry "COc1ccc(-n2c(=O)c3ccccc3n(Cc3cccc(C)c3)c2=O)cc1" : 75

---

System: Wild type
Assay: S. aureus survival, RN4220 and DeltatarO strains – OD600, teichoic acid synthesis inhibitors, primary screen (AID 463173)
Conditions: S. aureus RN4220 wild type/DeltatarO growth, OD600, 18 h, stronger effect = lower value, screened at 18.75 µg/mL (by protocol)
In all, about 52,000 compounds went through this assay and about 1,700 (3.3%) were called active. The sample as a whole holds a higher share of actives than the screen did.
Answer each item with its documented survival.
Give bare numbers, in %.

[
  {
    "input-smiles": "CNC(=S)N(CCN1CCOCC1)Cc1cc2cc(C)c(Cl)cc2[nH]c1=O",
    "experimental-system": "Wild type",
    "survival (%)": 113
  },
  {
    "input-smiles": "COc1ccc(CNS(=O)(=O)c2cc3c(cc2C)n(C)c(=O)c(=O)n3C)cc1",
    "experimental-system": "Wild type",
    "survival (%)": 77
  }
]

List the reported survival of each molecule below.
1. Cc1nc(-c2ccccc2)sc1CCNC(=O)C(=O)Nc1ccc(F)c(Cl)c1
2. O=C(NCCc1ccc(Cl)cc1)c1nc(-c2cccc(F)c2)n2c1CCCCC2
3. CC(C)CCNC(=O)C(=O)Nc1c2c(nn1-c1ccccc1)CS(=O)(=O)C2

1
140
90

---

Tested on: Wild type
Test: S. aureus survival, RN4220 and DeltatarO strains – OD600, teichoic acid synthesis inhibitors, primary screen (AID 463173)
Conditions: S. aureus RN4220 wild type/DeltatarO growth, OD600, 18 h, screened at 18.75 µg/mL (by protocol)
About 1,700 (3.3%) of roughly 52,000 compounds were called active. Cut-off read from the data, not from the text of the source: active = survival mostly below about 52% (no sharp cut-off); inactive = mostly above about 56%. The list comes from a sample in which actives are over-represented; it also holds close analogues and randomly drawn compounds.
Answer with one of the outcomes T = active, F = inactive

[
  {
    "compound": "COc1ccccc1-c1nc(SCC(=O)c2ccccc2)n[nH]1",
    "experimental-system": "Wild type",
    "category-label": "F"
  },
  {
    "compound": "CC(CCc1ccccc1)NC(=O)CSc1n[nH]c(-c2ccccc2)n1 (configuration not stated)",
    "experimental-system": "Wild type",
    "category-label": "F"
  },
  {
    "compound": "Cc1cc(C)cc(-n2c(SCC(=O)N3CCCCC3)nc3c([nH]c4ccccc43)c2=O)c1",
    "experimental-system": "Wild type",
    "category-label": "F"
  },
  {
    "compound": "CCNC(=O)c1cnc2c(-c3ccccc3)c(C)nn2c1C",
    "experimental-system": "Wild type",
    "category-label": "T"
  },
  {
    "compound": "COc1ccc(CNC(=O)CSc2n[nH]c(-c3ccc(OC)cc3)n2)cc1",
    "experimental-system": "Wild type",
    "category-label": "T"
  },
  {
    "compound": "O=C(CSc1n[nH]c(-c2ccccc2Cl)n1)NCc1ccc(F)cc1",
    "experimental-system": "Wild type",
    "category-label": "T"
  },
  {
    "compound": "Cc1nn2c(C)c(C(=O)NCC(C)c3ccccc3)cnc2c1-c1ccccc1 (configuration not stated)",
    "experimental-system": "Wild type",
    "category-label": "F"
  },
  {
    "compound": "COc1ccc(-c2nc(SCC(=O)NC(C)CCc3ccccc3)n[nH]2)cc1 (configuration not stated)",
    "experimental-system": "Wild type",
    "category-label": "T"
  }
]

Which result was noted for this compound in the test: "CC1CCN(C(=O)CSc2nc3c([nH]c4ccccc43)c(=O)n2-c2ccccc2)CC1"
F

Query: recorded result category for "Cc1ccc(CNC(=O)CSc2n[nH]c(-c3ccc(F)cc3)n2)cc1" in this test
F

Please let me know the test result on file for CC(CCc1ccccc1)NC(=O)CSc1n[nH]c(-c2ccc(F)cc2)n1 (configuration not stated) .
F

Kindly provide the recorded test outcome for the following compound: "CCOc1ccc(CCNC(=O)c2cnc3c(-c4ccc(F)cc4)c(C)nn3c2C)cc1OCC"
F

For "CCOc1ccc(-c2c(C)nn3c(C)c(C(=O)NCCc4ccccc4)cnc23)cc1OCC" , what call appears in the results of this test?
F

Please share the test call associated with "CCOc1ccc(CCNC(=O)c2cnc3c(-c4ccccc4)c(C)nn3c2C)cc1OCC" .
T

Assay result, entry "COc1cccc(CNC(=O)CSc2n[nH]c(-c3ccccc3Cl)n2)c1" — outcome?
F

// outcome(item) with item = "Cc1nn2c(C)c(C(=O)NCCc3ccccc3)cnc2c1-c1ccccc1"
F

Kindly provide the recorded test outcome for the following compound: "O=C(COCc1cc(-c2ccc(F)cc2)on1)Nc1cccc(C(F)(F)F)c1"
F

Test call for this compound, please: "CC(=O)Nc1cc(-n2cnnn2)ccc1C"
F

Call for entry COC(=O)C(C)Sc1nc2c([nH]c3ccccc32)c(=O)n1-c1ccc(OC)cc1 (configuration not stated) :
F

Identify the outcome logged in this assay for the compound shown: "COc1ccc(CNC(=O)CSc2n[nH]c(-c3ccc(F)cc3)n2)cc1"
F

Assay outcome for "CCOC(=O)c1sc2ccccc2c1S(=O)(=O)Nc1ccc(C(C)=O)cc1" : what was it?
F

Check the results log: what was the call for "O=C(CSc1n[nH]c(-c2ccccc2Cl)n1)NCCc1ccccc1" ?
F
